The entries below are paired with their reported IC50.
biological target: FAAH (Mus musculus); construct: mouse brain membrane fraction or cell lysates for mouse assays; assay: In vitro competitive activity-based protein profiling, mouse FAAH

# MOLECULE, TARGET_ENTITY, IC50
rows = [
    ("CNC(=O)c1cnn(C(=O)N2CC3CN(Cc4cccc(C(F)(F)F)c4)CC3C2)c1 (stereo not shown)", "FAAH (Mus musculus)", "≤ 0.1 µM"),
    ("CN(Cc1ccccc1Cl)[C@H]1C[C@@H]2CN(C(=O)n3cc(C(N)=O)cn3)C[C@@H]2C1", "FAAH (Mus musculus)", "≤ 0.1 µM"),
    ("O=C(N1CC2CN(Cc3ccc(F)cc3N3CCOCC3)CC2C1)n1cc(Cl)cn1 (stereo not shown)", "FAAH (Mus musculus)", "0.1 to 1 µM"),
    ("Cc1cc(-c2ccccc2)ccc1CN1CC2CN(C(=O)n3cc(Cl)cn3)CC2C1 (stereo not shown)", "FAAH (Mus musculus)", "≤ 0.1 µM"),
    ("CN(Cc1cccc(C(F)(F)F)c1)[C@H]1C[C@@H]2CN(C(=O)n3cc(Cl)cn3)C[C@@H]2C1", "FAAH (Mus musculus)", "≤ 0.1 µM"),
    ("O=C(N1C[C@H]2C[C@@H](NCc3ccccc3Cl)C[C@H]2C1)n1cc(Cl)cn1", "FAAH (Mus musculus)", "0.1 to 1 µM"),
    ("CN(Cc1cccc(Oc2cccnc2)c1)[C@H]1C[C@@H]2CN(C(=O)n3cc(Cl)cn3)C[C@@H]2C1", "FAAH (Mus musculus)", "≤ 0.1 µM"),
    ("NC(=O)c1cnn(C(=O)N2CCC3(CCN(Cc4cc(Cl)cc(C(F)(F)F)c4)C3)C2)c1 (stereo not shown)", "FAAH (Mus musculus)", "≤ 0.1 µM"),
    ("O=C(N1CC2CN(Cc3ccc(C(F)(F)F)cc3N3CCCC3)CC2C1)n1cc(Cl)cn1 (stereo not shown)", "FAAH (Mus musculus)", "0.1 to 1 µM"),
    ("CC(=O)N(Cc1ccccc1Cl)[C@@H]1C[C@@H]2CN(C(=O)n3cc(Cl)cn3)C[C@@H]2C1", "FAAH (Mus musculus)", "0.1 to 1 µM"),
    ("NC(=O)c1cnn(C(=O)N2CC[C@@]3(CCN(Cc4cc(Cl)cc(C(F)(F)F)c4)C3)C2)c1", "FAAH (Mus musculus)", "≤ 0.1 µM"),
    ("CN(Cc1cccc(N2CCOCC2)c1)[C@@H]1C[C@@H]2CN(C(=O)n3cc(Cl)cn3)C[C@@H]2C1", "FAAH (Mus musculus)", "≤ 0.1 µM"),
    ("O=C(N1CC2CN(Cc3ccc(N4CCCC4)cc3)CC2C1)n1cc(Cl)cn1 (stereo not shown)", "FAAH (Mus musculus)", "0.1 to 1 µM"),
    ("O=C(N1CC2CN(Cc3cccc(Oc4ccccc4)c3)CC2C1)n1cc(Cl)cn1 (stereo not shown)", "FAAH (Mus musculus)", "≤ 0.1 µM"),
    ("O=C(N1CC2CN(Cc3ccccc3C(F)(F)F)CC2C1)n1cc(C(F)(F)F)cn1 (stereo not shown)", "FAAH (Mus musculus)", "≤ 0.1 µM"),
    ("COc1cccc(CN2CCC3(CCN(C(=O)n4cc(C(F)(F)F)cn4)C3)C2)c1 (stereo not shown)", "FAAH (Mus musculus)", "≤ 0.1 µM"),
]

---

target: FAAH (Mus musculus); construct: mouse brain membrane fraction or cell lysates for mouse assays; from tissue; assay: In vitro competitive activity-based protein profiling, mouse FAAH; assay type: biochemical; settings: 1 μM, read-out: FAAH % inh. 1 μM (mouse)

# COMPOUND, inhibition at 1 µM
measured = [
    ("O=C(c1cnn(C(=O)N2CC3CN(Cc4ccc(N5CCOCC5)cc4C(F)(F)F)CC3C2)c1)N1CCOCC1 (stereo not shown)", "≥ 75%"),
    ("CN(Cc1ccc(-c2cnccn2)cc1C(F)(F)F)[C@@H]1C[C@@H]2CN(C(=O)n3cc(C(N)=O)cn3)C[C@@H]2C1", "≥ 75%"),
    ("O=C(c1cnn(C(=O)N2CC3CN(Cc4ccccc4Cl)CC3C2)c1)N1CCCCC1 (stereo not shown)", "≥ 75%"),
    ("CN(Cc1ccccc1C(F)(F)F)[C@@H]1C[C@@H]2CN(C(=O)n3cc(C(=O)N4CCOCC4)cn3)C[C@@H]2C1", "≥ 75%"),
    ("NC(=O)c1cnn(C(=O)N2CC3CN(Cc4ccc(N5CCOCC5)cc4C(F)(F)F)CC3C2)c1 (stereo not shown)", "≥ 75%"),
    ("CN(Cc1ccccc1C(F)(F)F)[C@@H]1C[C@@H]2CN(C(=O)n3cc(C(N)=O)cn3)C[C@@H]2C1", "≥ 75%"),
    ("CN(Cc1ccccc1Cl)[C@H]1C[C@@H]2CN(C(=O)n3cc(C(=O)N4CCN(C5CC5)CC4)cn3)C[C@@H]2C1", "0 to 25%"),
]

---

biological target: FAAH (Homo sapiens); construct: human prefrontal cortex or cell membrane fractions for human assays; from tissue; assay: In vitro competitive activity-based protein profiling, human FAAH; format: biochemical; conditions: 10 μM, read-out: FAAH % inh. 10 μM (human)
Sequence (O00519 whole entry): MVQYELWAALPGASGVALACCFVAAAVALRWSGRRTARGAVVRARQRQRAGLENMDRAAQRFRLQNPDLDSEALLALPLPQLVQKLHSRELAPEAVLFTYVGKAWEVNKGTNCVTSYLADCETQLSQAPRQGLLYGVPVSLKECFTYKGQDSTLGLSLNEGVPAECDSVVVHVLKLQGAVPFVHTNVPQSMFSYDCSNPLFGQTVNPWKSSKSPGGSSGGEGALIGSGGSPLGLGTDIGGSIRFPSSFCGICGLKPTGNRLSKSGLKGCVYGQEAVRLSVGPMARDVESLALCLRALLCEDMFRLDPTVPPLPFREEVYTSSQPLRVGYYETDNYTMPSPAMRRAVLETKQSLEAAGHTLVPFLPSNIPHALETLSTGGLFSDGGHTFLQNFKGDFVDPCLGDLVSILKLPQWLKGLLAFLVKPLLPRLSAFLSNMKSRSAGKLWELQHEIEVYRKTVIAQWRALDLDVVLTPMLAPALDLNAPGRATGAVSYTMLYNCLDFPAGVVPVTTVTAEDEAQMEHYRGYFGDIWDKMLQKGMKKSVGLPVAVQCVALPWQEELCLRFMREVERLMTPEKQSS

# COMPOUND, inhibition at 10 µM
data = [
    ("CN(Cc1ccccc1Cl)[C@H]1C[C@@H]2CN(C(=O)n3cc(C(=O)O)cn3)C[C@@H]2C1", "25 to 50%"),
    ("O=C(O)c1cnn(C(=O)N2CC3CN(Cc4ccc(Cl)cc4)CC3C2)c1 (stereo not shown)", "0 to 25%"),
    ("O=C(c1cnn(C(=O)N2CC3CN(Cc4cccc(Oc5ccc(Cl)cc5)c4)CC3C2)c1)N1CCCC1 (stereo not shown)", "≥ 75%"),
    ("O=C(O)c1cnn(C(=O)N2CC3CN(Cc4cc(Cl)ccc4C(F)(F)F)CC3C2)c1 (stereo not shown)", "≥ 75%"),
]

---

The entries below are paired with their reported inhibition at 1 µM.
molecular target: MAGL (Mus musculus); construct: mouse brain membrane fraction or cell lysates for mouse assays; from tissue; experiment: In vitro competitive activity-based protein profiling, mouse MAGL; type: biochemical; conditions: 1 μM, read-out: MAGL % inh. 1 μM (mouse)
Sequence (O35678 whole entry): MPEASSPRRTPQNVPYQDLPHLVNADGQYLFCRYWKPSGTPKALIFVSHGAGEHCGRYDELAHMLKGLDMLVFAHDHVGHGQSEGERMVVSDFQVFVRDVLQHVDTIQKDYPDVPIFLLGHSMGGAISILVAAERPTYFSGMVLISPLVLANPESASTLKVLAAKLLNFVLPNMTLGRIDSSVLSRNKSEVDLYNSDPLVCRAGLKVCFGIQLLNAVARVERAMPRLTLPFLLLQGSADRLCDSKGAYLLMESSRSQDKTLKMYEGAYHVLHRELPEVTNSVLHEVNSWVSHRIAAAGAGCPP
RECORDED_ENDPOINT: inhibition at 1 µM

# COMPOUND, TARGET_ENTITY, EXPERIMENTAL_VALUE
measured = [
    ("O=C(c1cnn(C(=O)N2CCC3(CCN(Cc4cc(Cl)cc(C(F)(F)F)c4)C3)C2)c1)N1CCN(C2CC2)CC1 (centres unmarked)", "MAGL (Mus musculus)", "≥ 75%"),
    ("O=C(O)c1cnn(C(=O)N2CC3CN(Cc4cc(Cl)ccc4C(F)(F)F)CC3C2)c1 (centres unmarked)", "MAGL (Mus musculus)", "0 to 25%"),
    ("NC(=O)c1cnn(C(=O)N2CCC3(CCN(Cc4ccc(Cl)cc4)C3)C2)c1 (centres unmarked)", "MAGL (Mus musculus)", "50 to 75%"),
    ("COc1ccccc1CN1CC2CN(C(=O)n3cc(C(F)(F)F)cn3)CC2C1 (centres unmarked)", "MAGL (Mus musculus)", "≥ 75%"),
    ("CN(Cc1cccc(Oc2ccccc2)c1)[C@H]1C[C@@H]2CN(C(=O)n3cc(C(=O)O)cn3)C[C@@H]2C1", "MAGL (Mus musculus)", "0 to 25%"),
    ("O=C(N1CCC2(CCN(Cc3ccccc3C(F)(F)F)C2)C1)n1cc(C(F)(F)F)cn1 (centres unmarked)", "MAGL (Mus musculus)", "≥ 75%"),
    ("O=C(c1cnn(C(=O)N2CC3CN(Cc4ccc(N5CCOCC5)cc4C(F)(F)F)CC3C2)c1)N1CCCC1 (centres unmarked)", "MAGL (Mus musculus)", "≥ 75%"),
    ("CN(Cc1ccc(C(F)(F)F)cc1)[C@@H]1C[C@@H]2CN(C(=O)n3cc(C(N)=O)cn3)C[C@@H]2C1", "MAGL (Mus musculus)", "≥ 75%"),
]

---

Target: FAAH (Mus musculus, UniProt O08914)
Construct: mouse brain membrane fraction or cell lysates for mouse assays
Sequence (O08914 1-579): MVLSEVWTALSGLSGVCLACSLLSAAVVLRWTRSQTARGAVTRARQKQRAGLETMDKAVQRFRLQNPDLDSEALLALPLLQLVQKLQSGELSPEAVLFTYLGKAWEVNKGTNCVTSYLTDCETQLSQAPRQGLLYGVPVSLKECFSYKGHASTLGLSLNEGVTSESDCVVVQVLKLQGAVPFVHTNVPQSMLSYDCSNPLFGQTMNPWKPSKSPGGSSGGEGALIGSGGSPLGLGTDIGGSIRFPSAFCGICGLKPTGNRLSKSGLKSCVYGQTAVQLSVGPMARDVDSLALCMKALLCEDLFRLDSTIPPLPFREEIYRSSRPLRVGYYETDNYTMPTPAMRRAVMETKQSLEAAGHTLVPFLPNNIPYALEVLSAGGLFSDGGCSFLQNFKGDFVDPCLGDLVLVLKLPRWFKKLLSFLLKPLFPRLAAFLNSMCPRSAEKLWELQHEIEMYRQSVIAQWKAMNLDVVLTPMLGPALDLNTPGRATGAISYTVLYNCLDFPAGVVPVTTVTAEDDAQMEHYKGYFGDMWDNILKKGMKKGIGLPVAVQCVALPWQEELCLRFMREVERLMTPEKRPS
Test: In vitro competitive activity-based protein profiling, mouse FAAH

# MOLECULE, TARGET_ENTITY, IC50
records = [
    ("O=C(N1CC2CN(Cc3ccc(N4CCOCC4)cc3)CC2C1)n1cc(Cl)cn1 (stereo not shown)", "FAAH (Mus musculus, UniProt O08914)", "0.1 to 1 µM"),
    ("CNC(=O)c1cnn(C(=O)N2CCC3(CCN(Cc4ccc(Cl)cc4)C3)C2)c1 (stereo not shown)", "FAAH (Mus musculus, UniProt O08914)", "0.1 to 1 µM"),
    ("O=C(N1CC2CN(Cc3ccc(CN4CCOCC4)cc3)CC2C1)n1cc(Cl)cn1 (stereo not shown)", "FAAH (Mus musculus, UniProt O08914)", "0.1 to 1 µM"),
    ("O=C(N1CC2CN(Cc3cccc(N4CCCC4)c3)CC2C1)n1cc(C(F)(F)F)cn1 (stereo not shown)", "FAAH (Mus musculus, UniProt O08914)", "≤ 0.1 µM"),
]

Value source: patent US10385057B2
